Assay: self-splicing fitness, log relative to wild type (ln ratio); higher = more splicing; Tetrahymena group I intron in knt gene, E. coli kanamycin selection, DiMSum; sequences stand for … in CUCUCU…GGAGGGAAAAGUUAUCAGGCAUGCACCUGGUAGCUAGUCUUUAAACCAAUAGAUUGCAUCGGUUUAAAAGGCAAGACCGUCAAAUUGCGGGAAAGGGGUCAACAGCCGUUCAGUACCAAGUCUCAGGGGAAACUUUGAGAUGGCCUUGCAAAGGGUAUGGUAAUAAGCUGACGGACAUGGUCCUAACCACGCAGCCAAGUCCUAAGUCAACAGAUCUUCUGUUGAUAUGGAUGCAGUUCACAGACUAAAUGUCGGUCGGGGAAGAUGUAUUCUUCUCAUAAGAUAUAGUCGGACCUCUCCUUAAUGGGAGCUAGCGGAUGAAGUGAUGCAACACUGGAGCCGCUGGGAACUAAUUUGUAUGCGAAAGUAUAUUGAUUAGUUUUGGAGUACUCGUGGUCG;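 also: selection with 25 µg/mL kanamycin versus none on LB agar overnight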
Conditions: 30 °C
METRIC_NAME: self-splicing fitness (ln)
Output: the number by itself.

See these solved cases before continuing.
AAGAAGCAAUAUUACGCCCU | 0.319
GCGCAGCAAUAUUACGUAAU | -0.192
CGAUAGCAAUAUUACGGCUU | -2.67
GCCUAGCAAUAUUACGACAA | -2.19
GGUAAGCAAUAUUACGCGUU | -1.34

Any idea what self-splicing fitness (ln) was measured for `CGCAAGCAAUAUUACGAUUU` ?
-2.45

Entry source: the supplement of paper PMC7877785
